target: Cytochrome P450 2C19 (Homo sapiens); test: Cytochrome P450 Family 2 Subfamily C Member 19 (CYP2C19) small molecule antagonists: luciferase reporter qHTS assay (AID 1671197); conditions: P450-Glo CYP2C19 enzyme, luciferin luminescence, 1 h; series mostly up to 115 µM; also: nearly all actives have a fitted effect of over 65% in size; also: potency is read from the fitted curve at half-maximal effect
Inconclusive results are not listed. Active and inactive are the calls of the source. Calls follow the shape of the dose curve; as a rule, active = well fitted inhibition curve with a large enough effect in the repeat runs; inconclusive = weak or mixed curves; inactive = no such curve, though single readings can be large or run the other way.

{"columns": ["molecule", "Potency"],
 "data": [
  ["CCCCCCCC/C=C\\CCCCCCCC(=O)N(C)CC(=O)O", "inactive"],
  ["NCCCCCCNCCCCCCN", "inactive"],
  ["CC1CCCNC1 (stereo not given)", "inactive"],
  ["CC(=O)Oc1ccc(C2(c3ccc(OC(C)=O)cc3)Oc3ccccc3NC2=O)cc1", "6.92 µM (active)"],
  ["O=CC1CC1", "inactive"],
  ["C=C[C@](C)(O)CC[C@@H]1[C@@]2(C)CCCC(C)(C)[C@@H]2CC[C@@]1(C)O", "1 µM (active)"],
  ["COc1nccnc1CC(C)C", "inactive"],
  ["CC(=O)O[C@@H]1C[C@@H]2CC[C@@]1(C)C2(C)C", "inactive"],
  ["CCCCCCCCCCCCCOP(=O)(O)O", "79.6 µM (active)"],
  ["CCCCCCCOC(=O)c1ccccc1C(=O)OCCCCCCC", "39.9 µM (active)"],
  ["Cc1cc(=O)[nH]c(=O)[nH]1", "inactive"],
  ["NC(=O)C(=O)N/N=C/c1ccc([N+](=O)[O-])o1", "inactive"],
  ["CN(C)CCN1CCOCC1", "inactive"],
  ["Cc1cc(Nc2ccc(O)cc2)ccc1N", "19.9 µM (active)"],
  ["Clc1ccc(C(Cn2ccnc2)OCc2ccsc2Cl)c(Cl)c1 (stereo not given)", "0.347 µM (active)"],
  ["O=c1cccc[nH]1", "inactive"],
  ["CN1CCN(C2Cc3ccccc3Sc3ccc(Cl)cc32)CC1 (stereo not given)", "11 µM (active)"],
  ["CCCCN(CCCC)CCC(O)c1cc2c(Cl)cc(Cl)cc2c2cc(C(F)(F)F)ccc12 (stereo not given)", "inactive"],
  ["CCCCCCCCCCOCC(O)CN (stereo not given)", "6.92 µM (active)"],
  ["CS(C)(=O)=O", "inactive"]
]}

The reported numbers originate from PubChem BioAssay (Tox21).
